B1: TPR t1 (parent)
chain: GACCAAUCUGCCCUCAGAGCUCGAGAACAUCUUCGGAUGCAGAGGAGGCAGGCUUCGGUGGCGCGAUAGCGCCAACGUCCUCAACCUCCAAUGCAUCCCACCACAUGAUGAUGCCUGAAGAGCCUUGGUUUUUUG

# Variants of: B1
# Experimental protocol: polymerase ribozyme fitness, log enrichment relative to wild type (log ratio); higher = more active; in vitro selection for triplet polymerase activity
Each entry below carries its reported polymerase ribozyme fitness (log ratio).
In your answer, state the number alone without any accompanying words.

| Var | Numeric result |
| --- | --- |
| G69C G117A | -2.37 |

Bench note: what polymerase ribozyme fitness (log ratio) did A27G G45U U96G G120U show?
-3.04

Record request: polymerase ribozyme fitness (log ratio) value, item C53A C72G C88U C123G
1.36

Need polymerase ribozyme fitness (log ratio), item G61C G65A
-4.9

Suppose we examine the variant G51U G135U ; what polymerase ribozyme fitness (log ratio) value has been reported?
-4.28
